Data origin: patent US20110028447A1

Target: human CB1 receptor (Homo sapiens, UniProt P21554)
Sequence (P21554 whole entry): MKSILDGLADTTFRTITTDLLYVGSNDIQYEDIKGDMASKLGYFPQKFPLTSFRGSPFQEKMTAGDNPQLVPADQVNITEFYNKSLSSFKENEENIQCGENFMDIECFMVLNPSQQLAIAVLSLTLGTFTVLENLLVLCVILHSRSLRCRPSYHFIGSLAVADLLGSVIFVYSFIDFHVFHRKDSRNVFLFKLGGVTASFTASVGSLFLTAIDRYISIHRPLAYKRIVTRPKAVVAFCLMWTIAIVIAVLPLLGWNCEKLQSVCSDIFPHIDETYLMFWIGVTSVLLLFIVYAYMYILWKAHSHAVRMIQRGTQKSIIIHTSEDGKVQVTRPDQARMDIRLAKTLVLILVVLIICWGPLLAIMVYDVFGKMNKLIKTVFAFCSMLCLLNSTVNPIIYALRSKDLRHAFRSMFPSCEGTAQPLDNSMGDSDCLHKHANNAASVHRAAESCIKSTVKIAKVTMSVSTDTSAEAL
Experiment: Human CB1 receptor binding, [3H] CP-55,940 displacement on HEK cell membranes
Set-up: expressed in transfected cells; host or cells: HEK cells, doxycycline-induced; membrane preparation
Details: read-out: CB1 Ki
# reported pKi; entries follow
Note on units: pKi is unitless, being -log10 of a concentration expressed in mol/L.

Illustrative cases are given below, each with its answer.
Cc1cc(O)nc(NCCNC(=O)[C@@H](NC(=O)c2nn(Cc3ccc(F)cc3)c3ccccc23)C(C)(C)C)n1 ... 7.28
CC(C)(C)[C@H](NC(=O)c1nn(Cc2ccc(F)cc2)c2ccccc12)C(=O)NCC1CN(C(N)=O)C1 ... 7.61
CCOC(=O)c1nnc(CNC(=O)[C@@H](NC(=O)c2nn(Cc3ccc(F)cc3)c3ccccc23)C(C)(C)C)o1 ... 9.01
CC(C)(C)[C@H](NC(=O)c1nn(Cc2ccc(F)cc2)c2ccccc12)C(=O)N1CCN(C(=O)CCC(N)=O)CC1 ... 8.37
CC(C)(C)[C@H](NC(=O)c1nn(Cc2ccc(C#N)cc2)c2c(F)cccc12)c1nnc(N)o1 ... 9.29
CN1CC(CNC(=O)[C@@H](NC(=O)c2nn(Cc3ccc(C#N)cc3)c3c(F)cccc23)C(C)(C)C)CC1=O (stereo partly shown) ... 7.14

pKi reading for CCNC(=O)OC1CCCN(C(=O)[C@@H](NC(=O)c2nn(Cc3ccc(F)cc3)c3ccccc23)C(C)(C)C)C1 (stereo partly shown) : 7.51

pKi reading for `CC(C)(C)[C@H](NC(=O)c1nn(Cc2ccc(F)cc2)c2ccccc12)C(=O)N1CCN(C(N)=O)CC1` : 8.90

pKi reading for `CC(C)(C)[C@H](NC(=O)c1nn(Cc2ccc(F)cc2)c2ccccc12)C(=O)NC[C@H]1CCCC[C@H]1O` : 8.43

* * *

Target: human CB1 receptor (Homo sapiens)
Assay: [35S] GTPγS binding on membranes of CHO cells expressing the human CB1 receptor (agonism)
Format: biochemical
Parameters: expressed in transfected cells; membrane preparation
Settings: GTPγS EC50, human CB1, CHO cell membranes
Procedure: Membrane preparation: CHO cells expressing the human CB1 receptor were grown to 80% confluence in Ham's F-12 Nutrient Medium (Invitrogen) containing 10% fetal bovine serum (Invitrogen), 1% pen/strep (Invitogen), 1% Nonessential amino acids (Invitrogen) and 500 μg/ml G418 (Invitrogen). Cells were released from flasks using Cell Dissociation Buffer (Invitrogen). […] Protein concentration was determined using the Micro-BCA Protein Assay Kit (Pierce) using BSA as a standard. […]
# reported EC50; entries follow
I only need the number, in µM, no unit after it.

CC(C)(C)[C@H](NC(=O)c1nn(Cc2ccc(F)cc2)c2ccccc12)C(=O)NC1CCOC1 (stereo partly shown) ... 0.0374
CC(C)(C)[C@H](NC(=O)c1nn(Cc2ccc(C#N)cc2F)c2c(F)c(F)ccc12)C(N)=O ... 0.00746
CC(C)(C)[C@H](NC(=O)c1nn(Cc2ccccc2)c2ncccc12)C(N)=O ... 0.302

EC50 reading for `CC(C)(C)[C@H](NC(=O)c1nn(Cc2ccc(C#N)cc2)c2c(F)cccc12)C(=O)NC[C@H]1C[C@H]1CO` : 0.0631

* * *

Molecular target: human CB1 receptor (Homo sapiens)
Test: Human CB1 receptor binding, [3H] CP-55,940 displacement on HEK cell membranes
Design: expressed in transfected cells; host or cells: HEK cells, doxycycline-induced; membrane preparation
Conditions: CB1 Ki
# reported pKi; entries follow
Note on units: pKi is unitless, being -log10 of a concentration expressed in mol/L.

Illustrative cases are given below, each with its answer.
CC(C)(C)[C@H](NC(=O)c1nn(Cc2ccc(C#N)cc2)c2cc(F)ccc12)C(=O)NC1CC1 ... 8.07
CC(C)(C)[C@H](NC(=O)c1nn(Cc2ccc(F)cc2)c2ccccc12)C(=O)N[C@@H]1CC[C@@H](O)C1 ... 8.29
CC(C)(C)[C@H](NC(=O)c1nn(Cc2ccc(C#N)cc2)c2c(F)cccc12)C(=O)NCC(N)=O ... 7.54
CC(C)(C)C(NC(=O)c1nn(Cc2ccc(C#N)cc2)c2ccc(F)cc12)C(=O)NCCO (stereo not shown) ... 8.29

For the molecule `CC(C)(C)[C@H](NC(=O)c1nn(Cc2ccc(C#N)cc2)c2c(F)cccc12)C(=O)NC[C@H]1C[C@H]1CO` , the measured pKi on human CB1 receptor (Homo sapiens) was 7.91
